What ED (max) was measured for each of the following?
system: anesthetized guinea-pig; assay: Inotropic effect and lethal dose, slow intravenous infusion (over 90 minutes) in anesthetized guinea-pig; details: Cavia porcellus, iv, 1.5 h, read-out: EDmax (dose inducing maximum positive inotropic effect)
Counter-ions that a name gives are not always drawn.
I'd appreciate it if you included the unit after the number.

Sample C=C1C[C@@H]2[C@H](CC[C@]3(C)C(=O)CC[C@@H]23)[C@@]2(C)CC/C(=N\OCCN)CC12.Cl (stereo partly drawn) [I-ai, hydrochloride] ; ED (max) observed: 2.99 µmol/kg

Sample CC12CCC3C(CC(CCO)C4CC(=NOCCN)CCC43C)C1CCC2=O (mixture of isomers) [I-am, hydrochloride] ; ED (max) observed: 17.2 µmol/kg

Sample CC12CCC3C(CC(CO)C4CC(=NOCCN)CCC43C)C1CCC2=O (single isomer, unassigned) [I-ao, hydrochloride] ; ED (max) observed: 7.37 µmol/kg

====

tested on: anesthetized guinea-pig; assay: Inotropic effect and lethal dose, slow intravenous infusion (over 90 minutes) in anesthetized guinea-pig; settings: slow i.v. infusion over 90 minutes
Counter-ions that a name gives are not always drawn.
What Dead/treated was measured for each of the following?

Sample CC12CCC3C(C(=O)CC4CC(=NOCCN)CCC43C)C1CCC2=O (mixture of isomers) ; Dead/treated observed: 2/5

Sample C[C@]12CC[C@@H](/C=C\CCCN)CC1/C(=N/O)C[C@@H]1[C@@H]2CC[C@]2(C)C(=O)CC[C@@H]12.O=C(O)/C=C/C(=O)O (stereo partly drawn) ; Dead/treated observed: 0/3

Sample CC1CC2C3CCC(=O)C3(C)CCC2C2(C)CCC(=NOCCN)CC12 (single isomer, unassigned) [I-ba, hydrochloride] ; Dead/treated observed: 0/3

Sample C[C@]12CC[C@H]3[C@@H](C/C(=N\O)[C@@]4(O)CC(=NOCCN)CC[C@]34C)[C@@H]1CCC2=O.O=C(O)/C=C/C(=O)O ; Dead/treated observed: 0/3

Sample CC12CCC3C(CC(CO)C4CC(=NOCCN)CCC43C)C1CCC2=O (single isomer, unassigned) [I-ao, hydrochloride] ; Dead/treated observed: 0/3

Sample CNCCCON=C1CCC2(C)C(C1)C(NC=O)CC1C3CCC(=O)C3(C)CCC12 (mixture of isomers) [I-co, hydrochloride] ; Dead/treated observed: 2/2

====

What IC50 was measured for each of the following?
molecular target: Na+, K+-ATPase (Canis lupus familiaris, UniProt P50997); test: biochemical; parameters: species or system dog; conditions: read-out: Na+, K+-ATPase Inhibition IC50
Structures can show the parent of a compound that is named as a salt.

Sample C[C@]12CCC(=NOCCN)CC1C[C@@H](O)[C@@H]1[C@@H]2CC[C@]2(C)C(=O)CC[C@@H]12 (stereo partly shown) [I-bv] ; IC50 observed: 520 nM

Sample C=C1C[C@@H]2[C@H](CC[C@]3(C)C(=O)CC[C@@H]23)[C@@]2(C)CC[C@@H]([S@+]([O-])CCCN)CC12 (stereo partly shown) [I-ec, fumarate] ; IC50 observed: 80000 nM

Sample C[C@]12CC[C@@H](/C=C\CCCN)CC1/C(=N/O)C[C@@H]1[C@@H]2CC[C@]2(C)C(=O)CC[C@@H]12.O=C(O)/C=C/C(=O)O (stereo partly shown) [I-dg] ; IC50 observed: 390 nM

Sample C[C@]12CC[C@H](/C=C\CCN)CC1/C(=N/O)C[C@@H]1[C@@H]2CC[C@]2(C)C(=O)CC[C@@H]12 (stereo partly shown) [I-de] ; IC50 observed: 1200 nM

Sample CC(C)(CN)ON=C1CC[C@@]2(C)C(C1)/C(=N/O)C[C@@H]1[C@@H]2CC[C@]2(C)C(=O)CC[C@@H]12 (stereo partly shown) [I-eo, hydrochloride] ; IC50 observed: 20 nM

Sample C[C@]12CCC(=NOCCN)CC1[C@@H](C=NO)C[C@@H]1[C@@H]2CC[C@]2(C)C(=O)CC[C@@H]12 (stereo partly shown) [I-an] ; IC50 observed: 390 nM

Sample CNCCON=C1CC[C@@]2(C)C(C1)C(=NOC)C[C@@H]1[C@@H]2CC[C@]2(C)C(=O)CC[C@@H]12 (stereo partly shown) [I-ce, hydrochloride] ; IC50 observed: 650 nM

Sample C[C@]12CCC(=NOCCN)CC1[C@@H](NC=O)C[C@@H]1[C@@H]2CC[C@]2(C)C(=O)CC[C@@H]12.O=C(O)/C=C/C(=O)O (stereo partly shown) [I-be] ; IC50 observed: 160 nM

Sample C[C@]12CC[C@@H](/C=C\CCCCN)CC1/C(=N/O)C[C@@H]1[C@@H]2CC[C@]2(C)C(=O)CC[C@@H]12 (stereo partly shown) [I-dj] ; IC50 observed: 1300 nM

Sample CNCCCON=C1CC[C@@]2(C)C(C1)C(=NOC)C[C@@H]1[C@@H]2CC[C@]2(C)C(=O)CC[C@@H]12.Cl (stereo partly shown) [I-ci, hydrochloride] ; IC50 observed: 330 nM

====

What pIC50 was measured for each of the following?
target: Na+, K+-ATPase (Canis lupus familiaris); experiment: biochemical; parameters: species or system dog; settings: dog kidney enzyme; read-out: Na+, K+-ATPase Inhibition IC50
Where a name gives a salt, the structure may show the parent alone.
API: returns pIC50 as number; meaning -log10 of concentration in mol/L.

Sample CNCCCON=C1CC[C@@]2(C)[C@H](C1)[C@@H](C(N)=O)C[C@@H]1[C@@H]2CC[C@]2(C)C(=O)CC[C@@H]12 (mixture of isomers) [I-cn, hydrochloride] ; pIC50 observed: 5.72

Sample CC(=O)OCC1CC2C3CCC(=O)C3(C)CCC2C2(C)CCC(=NOCCN)CC12 (stereo not shown) ; pIC50 observed: 5.52

Sample C[C@]12CC[C@H]3[C@@H](CC[C@@]4(O)C[C@H](/C=C\CCCN)CC[C@]34C)[C@@H]1CCC2=O ; pIC50 observed: 6.16

Sample CC12CCC3C(CC4(OCCO4)C4CC(=NOCCN)CCC34C)C1CCC2=O (mixture of isomers) ; pIC50 observed: 5.27

Sample C[C@]12CCC(=NOCCN)C[C@@H]1CC1(CC1)[C@@H]1[C@@H]2CC[C@]2(C)C(=O)CC[C@@H]12 (mixture of isomers) [I-cb, hydrochloride] ; pIC50 observed: 6.89

Sample CC(=O)N[C@H]1C[C@@H]2[C@H](CC[C@]3(C)C(=O)CC[C@@H]23)[C@@]2(C)CCC(=NOCCN)C[C@H]12 (mixture of isomers) [I-bf, hydrochloride] ; pIC50 observed: 4.35

Sample CC12CCC3C(CC(C(=O)O)C4CC(=NOCCN)CCC43C)C1CCC2=O (mixture of isomers) [I-ar, hydrochloride] ; pIC50 observed: 4.80

====

What % of compound metabolized after 60 minutes was measured for each of the following?
test system: fresh rat hepatocytes; test: Metabolism in fresh rat hepatocytes; settings: fresh rat hepatocytes; test item nominal concentration 45 μM
Counter-ions that a name gives are not always drawn.
Just the number please, in %, no unit attached.

Sample COC1CC2CC(=NOCCN)CCC2(C)C2CCC3(C)C(=O)CCC3C12 (mixture of isomers) ; % of compound metabolized after 60 minutes observed: 22

Sample C=C1C[C@@H]2[C@H](CC[C@]3(C)C(=O)CC[C@@H]23)[C@@]2(C)CC/C(=N\OCCN)CC12.Cl (stereo partly shown) ; % of compound metabolized after 60 minutes observed: 27

Sample C[C@]12CC[C@H](OC(=O)CCN)CC1/C(=N/O)C[C@@H]1[C@@H]2CC[C@]2(C)C(=O)CC[C@@H]12.Cl (stereo partly shown) ; % of compound metabolized after 60 minutes observed: 71

Sample CC12CCC3C(C(O)C(CO)C4CC(=NOCCN)CCC43C)C1CCC2=O (mixture of isomers) [I-ej, hydrochloride] ; % of compound metabolized after 60 minutes observed: 5

====

molecular target: Na+, K+-ATPase (Canis lupus familiaris, UniProt P50997); assay: biochemical; set-up: species or system dog; settings: dog kidney enzyme; read-out: Na+, K+-ATPase Inhibition IC50
Where a name gives a salt, the structure may show the parent alone.
What pIC50 was measured for each of the following?
API: returns pIC50 as number; meaning -log10 of concentration in mol/L.

Let me check: C[C@]12CCC(=NOCCN)C[C@@H]1[C@]1(CO1)C[C@@H]1[C@@H]2CC[C@]2(C)C(=O)CC[C@@H]12 (mixture of isomers) [I-bb, hydrochloride] , system Na+, K+-ATPase (Canis lupus familiaris, UniProt P50997), measured pIC50 is 6.06

Let me check: CC12CCC3C(CC(O[N+](=O)[O-])C4CC(=NOCCN)CCC43C)C1CCC2=O (single isomer, unassigned) [I-aa] , system Na+, K+-ATPase (Canis lupus familiaris, UniProt P50997), measured pIC50 is 6.48

Let me check: CC12CCC3C(CC(CCO)C4CC(=NOCCN)CCC43C)C1CCC2=O (mixture of isomers) [I-am, hydrochloride] , system Na+, K+-ATPase (Canis lupus familiaris, UniProt P50997), measured pIC50 is 6.49

Let me check: C=CCON=C1CC2CC(=NOCCN)CCC2(C)C2CCC3(C)C(=O)CCC3C12 (mixture of isomers) [I-bu] , system Na+, K+-ATPase (Canis lupus familiaris, UniProt P50997), measured pIC50 is 5.42

Let me check: CC12CCC3C(CC(CO)C4CC(=NOCCN)CCC43C)C1CCC2=O (single isomer, unassigned) [I-aj, hydrochloride] , system Na+, K+-ATPase (Canis lupus familiaris, UniProt P50997), measured pIC50 is 5.80

Let me check: CC12CCC3C(C(=O)C(CO)C4CC(=NOCCN)CCC43C)C1CCC2=O (mixture of isomers) [I-cd, hydrochloride] , system Na+, K+-ATPase (Canis lupus familiaris, UniProt P50997), measured pIC50 is 7.92

Let me check: CC12CCC3C(CC(C#N)C4CC(=NOCCN)CCC43C)C1CCC2=O (mixture of isomers) [I-ac] , system Na+, K+-ATPase (Canis lupus familiaris, UniProt P50997), measured pIC50 is 5.96

Let me check: COC(=O)C1CC2C3CCC(=O)C3(C)CCC2C2(C)CCC(=NOCCN)CC12 (mixture of isomers) [I-au, hydrochloride] , system Na+, K+-ATPase (Canis lupus familiaris, UniProt P50997), measured pIC50 is 6.39

Let me check: CON=C1CC2CC(=NOCCN)CCC2(C)C2CCC3(C)C(=O)CCC3C12 (mixture of isomers) [I-bt] , system Na+, K+-ATPase (Canis lupus familiaris, UniProt P50997), measured pIC50 is 4.92

Let me check: COC[C@H]1C[C@@H]2[C@H](CC[C@]3(C)C(=O)CC[C@@H]23)[C@@]2(C)CC/C(=N\OCCN)CC12 (stereo partly shown) [I-aq, hydrochloride] , system Na+, K+-ATPase (Canis lupus familiaris, UniProt P50997), measured pIC50 is 6.30

Let me check: CC12CCC3C(C(O)C(CO)C4CC(=NOCCN)CCC43C)C1CCC2=O (mixture of isomers) [I-ej, hydrochloride] , system Na+, K+-ATPase (Canis lupus familiaris, UniProt P50997), measured pIC50 is 7.66

Let me check: C[C@]12CCC(=NOCCN)C[C@@H]1C[C@@H](CO)[C@@H]1[C@@H]2CC[C@]2(C)C(=O)CC[C@@H]12 (mixture of isomers) [I-bz, hydrochloride] , system Na+, K+-ATPase (Canis lupus familiaris, UniProt P50997), measured pIC50 is 5.96

Let me check: CC12CCC3C(CC(CNC=O)C4CC(=NOCCN)CCC43C)C1CCC2=O (mixture of isomers) [I-bn, hydrochloride] , system Na+, K+-ATPase (Canis lupus familiaris, UniProt P50997), measured pIC50 is 5.29

Source listed as patent US8609644B2.
